Recorded TGI values for a group of compounds are listed next.
# Test system: SK-MEL-5 melanoma
# Protocol text: NCI tumour cell line growth inhibition, 48 h
Observed property: TGI (µM)

1) O=[N+]([O-])c1cc(Cl)c2[nH]c3c(Cl)cc([N+](=O)[O-])cc3c2c1
0.651
2) OC1(c2ccc(-c3ccccc3)cc2)c2ccccc2C2=NCCN21 (stereo not given)
43.6
3) COc1ccc(NC(=O)/C(=C/c2ccccc2)C(C)=O)cc1
28.2
4) Cc1ccc2c(c1)C(=O)c1nc(C)ccc1C2=O
19.7
5) CCC[CH2][Sn]([Cl])([Cl])[CH2]CCC
1.55

----------
# Test system: K-562 leukemia
# Protocol text: NCI tumour cell line growth inhibition, 48 h; in the data active = GI50 below about 0.43 µM; inactive = the rest
Classes used: active, inactive

1) C[C@@H]1C[C@H](C)CN(S(=O)(=O)c2ccc3c(NO)c4ccc(S(=O)(=O)N5C[C@H](C)C[C@H](C)C5)cc4c(N=O)c3c2)C1
active
2) COc1ccc(-c2ccncc2)cc1C(N)=O
inactive
3) COC(=O)c1cc2c3ccccc3n3c(=O)c4cc5ccc(N(S(=O)(=O)c6ccc(C)cc6)S(=O)(=O)c6ccc(C)cc6)cc5nc4c(n1)c23
inactive

----------
# Test system: SR leukemia
# Protocol text: NCI tumour cell line growth inhibition, 48 h
Recorded TGI values for a group of compounds are listed next.
Observed property: TGI

1. Cc1ccc(S(=O)(=O)OC2C(O)C(O)OC2C(c2cc(O)c3c(c2O)C(=O)c2ccccc2C3=O)c2cc(O)c3c(c2O)C(=O)c2ccccc2C3=O)cc1 (stereo not drawn)
> 10 µM
2. O=C(/C=C/c1ccccc1)CSc1ncn[nH]1
> 100 µM
3. CC[n+]1oc(C(=O)c2ccc(Cl)cc2)c(-c2ccccc2)c1-c1ccccc1.[Cl][Fe]([Cl])([Cl])[Cl]
> 100 µM

----------
# Tested on: OVCAR-8 ovarian
# Protocol text: NCI tumour cell line growth inhibition, 48 h
Recorded TGI values for a group of compounds are listed next.
Observed property: TGI

1. CC(=O)c1c(C)nc(SSc2nc(C)c(C(C)=O)c(-c3ccc(Cl)cc3)c2C#N)c(C#N)c1-c1ccc(Cl)cc1
> 150 µg/mL
2. O=C(CCC(=O)Nc1ccc(Cl)c(Cl)c1)CC(=O)c1ccc(Br)cc1
> 100 µM
3. CC(C)c1c(-c2ccccc2)nc2c(C#N)c[nH]n2c1=O
> 100 µM

----------
# Tested on: EKVX NSCLC
# Protocol text: NCI tumour cell line growth inhibition, 48 h
Observed property: TGI (µM)

1. NS(=O)(=O)c1ccc(-n2nc3c(c2-c2ccc(Cl)cc2)Cc2ccccc2-3)cc1
33.5
2. O=C(OC1C2OC(=O)c3cc(O)c(O)c(O)c3Oc3cc4c(c(O)c3O)-c3c(cc(O)c(O)c3O)C(=O)OCC3OC(O)C(OC(=O)c5cc(O)c(O)c(O)c5Oc5cc6c(c(O)c5O)-c5c(cc(O)c(O)c5O)C(=O)OC1C(COC6=O)OC2O)C(OC(=O)c1cc(O)c(O)c(O)c1)C3OC4=O)c1cc(O)c(O)c(O)c1 (configuration not stated)
37.9
3. c1ccc(C(NCC2CCO2)(c2ccccc2)c2ccccc2)cc1 (configuration not stated)
30.8

----------
# Test system: SF-539 CNS
# Protocol text: NCI tumour cell line growth inhibition, 48 h
Recorded TGI values for a group of molecules are listed next.
Observed property: TGI

1. O=C(/C=C/c1ccccc1)CSc1ncn[nH]1
> 100 µM
2. CCCCCCCCCCCCCCCCNC(=O)C(=O)/C=C(\O)c1ccc(C)cc1
> 10 µM
3. Cc1ccc(NC(=O)CCc2nc(N)nc(N)c2-c2ccccc2)cc1C
> 100 µM
4. COC(=O)C1C(O)CCC2CN3CCc4c([nH]c5ccccc45)C3CC21 (configuration not stated)
> 100 µM
5. COc1ccc(-c2ccncc2)cc1C(N)=O
> 25 µM
6. COC(=O)c1ccc(/C=C2\Oc3ccccc3C2=O)cc1
> 100 µM
7. CC(=O)OC12C3C4C1C1C2C3C41OC(C)=O (configuration not stated)
> 100 µM
8. CCOC(=O)C(=O)Nc1ccccc1C
> 100 µM
9. O=C1C(Br)=C(c2ccccc2)O/C1=C/C(=O)c1ccc(Br)cc1
> 100 µM
10. O=C(O)CCC(=O)c1ccc2c(c1)C(C(=O)O)CC2 (configuration not stated)
> 100 µM
11. CCOC(=O)c1[nH]c(-c2[nH]c(-c3[nH]c(-c4[nH]c(C(=O)OCC)c(C)c4C(=O)OCC)c(C(=O)OCC)c3C)c(C)c2C(=O)OCC)c(C(=O)OCC)c1C
> 100 µM
12. CC(C)(C)OC(=O)NC1CC2(C=C(Br)C(=O)C(Br)=C2)OC1=O (configuration not stated)
42.5 µM
13. O=CNNC(=O)Nc1cccc2ccccc12
> 100 µM
14. COC(=O)c1cc2c3ccccc3n3c(=O)c4cc5ccc(N(S(=O)(=O)c6ccc(C)cc6)S(=O)(=O)c6ccc(C)cc6)cc5nc4c(n1)c23
> 100 µM
15. CCC(=O)c1c(NOC2OCC(OC(C)=O)C(OC(C)=O)C2OC(C)=O)nc(OC)n(C)c1=O (configuration not stated)
> 100 µM
16. CC[n+]1oc(C(=O)c2ccc(Cl)cc2)c(-c2ccccc2)c1-c1ccccc1.[Cl][Fe]([Cl])([Cl])[Cl]
> 100 µM
17. O=C1/C(=C/c2cccc(Br)c2)COc2ccc(O)cc21
4.58 µM
18. CC(=N\N)/C(C)=N/N=C(C)/C(C)=N/N
> 100 µM
19. O=C1c2ccccc2-[n+]2ccc3c([nH]c4ccccc43)c21
1.45 µM
20. CCOC(=O)C(Cc1c[nH]c2c(N(CCO)CCO)cccc12)(NC(C)=O)C(=O)OCC
> 1000 µM
21. O=C(O)C(O)C(O)C(=O)O (configuration not stated)
> 100 µM
22. O=C(O)c1ccc(CI)cc1
32.1 µM
23. COc1ccc(NC(=O)CSC2=C(Nc3cccc(Br)c3)C(=O)N(Cc3ccccc3)C2=O)cc1Cl
> 100 µM
24. CC1=C(C(=O)CC(=O)C(=O)Nc2cc(C)ccc2C)Sc2ccccc2N1
> 100 µM
25. Cc1ncc(C(=O)Nc2ccc(CN3CCN(C)CC3)c(C(F)(F)F)c2)cc1C#Cc1cnc2cccnn12
1.18 µM
26. CCN(CC)CCCNc1ccc2nc(C)n3c4ccc(O)cc4c(=O)c1c23
22.7 µM
27. C=CCn1c(C)nc2ccc(Nc3nc(Nc4ccc(F)cc4)nc4ccccc34)cc21
25.7 µM
28. COc1ccc(-c2cs/c(=N\N=C\c3ccc(O)cc3O)n2/N=C/c2ccc(O)cc2O)cc1
3.75 µM
29. c1cc2c(s1)-c1sccc1C21OCCO1
> 100 µM
30. O=C1/C(=C\c2cccc(Oc3ccccc3)c2)SC(c2ccccc2)N1c1ccccc1 (configuration not stated)
93.6 µM
31. COc1cc2ncn(-c3cc(OCc4ccccc4C(F)(F)F)c(C(=O)N(C)C)s3)c2cc1OC
> 25 µM
32. O=C1CC2C(=O)c3ccccc3CC2c2ccccc21 (configuration not stated)
> 100 µM

----------
# Tested on: HL-60(TB) leukemia
# Protocol text: NCI tumour cell line growth inhibition, 48 h
Observed property: TGI (µM)

1. CCC[CH2][Sn]([Cl])([Cl])[CH2]CCC
1.02
2. Cc1ccccc1OC(C)C(=O)NN1C(=O)CSC1c1ccc(Cl)cc1 (stereo not given)
47.5
3. CN1CN(c2ccccc2)C2(CCN(CC(C)(c3ccc(F)cc3)C3OCCCO3)CC2)C1=O (stereo not given)
33.7
4. CCC(O)c1ccc(Br)cc1NC(=O)c1cccc(Cl)c1 (stereo not given)
60.1
5. O=C(N/N=C/c1cc(Cl)cc(Cl)c1[O-])c1ccccc1O.O=C(N/N=C/c1cc(Cl)cc(Cl)c1[O-])c1ccccc1O.[Co+2]
0.634
6. COc1c(/C=C/C(C)(C)O)cc(C2CC(=O)c3c(O)cc(O)cc3O2)cc1CC=C(C)C (stereo not given)
30.8
7. CC1=C[C@H]2c3c([nH]c4ccccc34)C(c3c[nH]c4ccccc34)[C@H]2CC1 (stereo not given in full)
17.6
8. CC(C)c1c(-c2ccccc2)nc2c(C#N)c[nH]n2c1=O
60.4

----------
# System: TK-10 renal
# Protocol text: NCI tumour cell line growth inhibition, 48 h
Recorded TGI values for a group of compounds are listed next.
Observed property: TGI

1) COC(=O)C1C(O)CCC2CN3CCc4c([nH]c5ccccc45)C3CC21 (centres undefined)
> 100 µM
2) C=CCNc1nc2c(s1)C(=O)c1ccccc1C2=O
34.2 µM
3) Cc1nc(C)c(N2CCN(S(=O)(=O)N(Cc3ccccc3)Cc3ccccc3)CC2)c(=O)[nH]1
> 72.9 µM
4) COc1ccc(-c2ccncc2)cc1C(N)=O
> 25 µM
5) O=S(=O)(NCCNc1nccc(-c2c(-c3ccc(F)c(O)c3)nc3sccn23)n1)c1ccc(F)cc1
96.7 µM
6) S=c1snc2n1CCN2
> 100 µM
7) Cc1cnc2sn(-c3ccc([N+](=O)[O-])cc3)c(=O)c2c1
> 100 µM
8) O=C(CCC(=O)Nc1ccc(Cl)c(Cl)c1)CC(=O)c1ccc(Br)cc1
> 100 µM
9) Nc1nonc1-c1nc2cnccc2n1C1CC1
> 20.3 µM

meta.source: PubChem BioAssay (NCI)
